B1: glmS ribozyme (parent)
chain: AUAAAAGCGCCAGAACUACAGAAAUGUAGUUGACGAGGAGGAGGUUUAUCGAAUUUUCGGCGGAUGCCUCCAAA

variants of: B1; experiment: self-cleavage kobs at 640 uM GlcN6P; higher = faster cleavage; RNA array; details: with glucosamine-6-phosphate
Fewer inactive variants are shown than the library holds.
Entries and their measured self-cleavage kobs at 640 uM GlcN6P follow.
Give just the numeric value; s⁻¹ need not be written.

Problem: What value of self-cleavage kobs at 640 uM GlcN6P has been recorded for this entry: A15G G44U
Solution: 0.000151

Problem: What value of self-cleavage kobs at 640 uM GlcN6P has been recorded for this entry: A15C G29U U55A
Solution: 0.000758

Problem: What value of self-cleavage kobs at 640 uM GlcN6P has been recorded for this entry: G41A U45G
Solution: 0.000144

Problem: What value of self-cleavage kobs at 640 uM GlcN6P has been recorded for this entry: C34G C50G
Solution: 0.00014

Problem: What value of self-cleavage kobs at 640 uM GlcN6P has been recorded for this entry: C16A C68G
Solution: 0.000279

Every entry's value here was drawn from the supplement of paper PMC7125110.
